# Tested on: cercal nerve giant interneuron synapses within the cockroach sixth abdominal ganglion (A6)
# Experimental Details: Mannitol-gap recordings, neurotoxic effect on insect cholinergic synaptic transmission
# Type: cell-based
# Experimental Setup: bath application, dose-response curve of sixth abdominal ganglion depolarization; read-out: EC50 of depolarization
I'd be grateful if you could share measured EC50 for these entries.
Give bare numbers, in µM.

# count of solved cases: 2
COc1ccc(S(=O)(=O)N2CCCC2)cn1
8.02
N#C[C@@H]1CCCN1S(=O)(=O)c1ccc(Cl)nc1
19

// below: EC50 requested for another compound
Just so you know, measured EC50 for COc1ccc(S(=O)(=O)N2CCCC2C#N)cn1 (stereo not drawn) came out at 4.25
